Tested on: Escherichia coli TOP10
Assay: shrunken log2 fold change of peptide-encoding DNA abundance (4.5 h post-induction vs induction); higher = less antimicrobial activity (less host growth inhibition)
Conditions: time post-induction: 4.5 h; library: site-saturation at positions 5, 18, 19, 20
Measured Attribute: shrunken log2 fold change

Below, 6 sequences whose answers are already recorded.
{"columns": ["Chain Sequence", "shrunken log2 fold change"],
 "data": [
  ["RRIRYRPPRLPRPRPRPRYSPRP", -1.43],
  ["RRIRERPPRLPRPRPRPWYAPRP", -0.137],
  ["RRIRSRPPRLPRPRPRPKLVPRP", -0.0443],
  ["RRIRSRPPRLPRPRPRPQFNPRP", -0.498],
  ["RRIRMRPPRLPRPRPRPLYLPRP", -0.327],
  ["RRIRTRPPRLPRPRPRPKKVPRP", -0.282]
]}

Would you mind telling me what shrunken log2 fold change value was observed for RRIRPRPPRLPRPRPRPHTSPRP ?
-0.622

# iterate: RRIRNRPPRLPRPRPRPKLNPRP
-0.208

One more sequence: RRIRRRPPRLPRPRPRPAQTPRP
0.348

Field entry: RRIRMRPPRLPRPRPRPLCAPRP
1.24

# iterate: RRIRERPPRLPRPRPRPANRPRP
0.111

Same again, this time with RRIRIRPPRLPRPRPRPKHTPRP
-0.329

Another sequence: RRIRDRPPRLPRPRPRPFCRPRP
0.0534

Also RRIRYRPPRLPRPRPRPTCCPRP , if possible.
-0.194

Can you handle RRIRFRPPRLPRPRPRPWLHPRP next?
0.0608

====

# Lookup of reported shrunken log2 fold change keyed by entry
System: Escherichia coli TOP10
Test: shrunken log2 fold change of peptide-encoding DNA abundance (4.5 h post-induction vs induction); higher = less antimicrobial activity (less host growth inhibition)
Conditions: time post-induction: 4.5 h; library: site-saturation at positions 5, 18, 19, 20
Enter the number alone.

Here's what some known entries look like.
{"columns": ["Chain Sequence", "Measured Attribute", "Measured Result"],
 "data": [
  ["RRIRYRPPRLPRPRPRPHQTPRP", "shrunken log2 fold change", 0.0583],
  ["RRIRERPPRLPRPRPRPYCFPRP", "shrunken log2 fold change", -0.511],
  ["RRIRARPPRLPRPRPRPVRDPRP", "shrunken log2 fold change", 0.315]
]}

Can you share its shrunken log2 fold change? I mean this sequence: RRIRFRPPRLPRPRPRPSEGPRP
0.0716

What about this sequence? RRIRVRPPRLPRPRPRPTIHPRP
-0.239

====

Let's look at some sequences and their measured shrunken log2 fold change.
System: Escherichia coli TOP10
Assay: shrunken log2 fold change of peptide-encoding DNA abundance (4.5 h post-induction vs induction); higher = less antimicrobial activity (less host growth inhibition)
Settings: time post-induction: 4.5 h; library: site-saturation at positions 5, 18, 19, 20
Could you respond with only the numeric value?

Some sequences with known shrunken log2 fold change results, for comparison:
{"columns": ["Chain Sequence", "Target", "shrunken log2 fold change"],
 "data": [
  ["RRIRCRPPRLPRPRPRPRPWPRP", "Escherichia coli TOP10", 0.432],
  ["RRIRYRPPRLPRPRPRPSAWPRP", "Escherichia coli TOP10", 0.199],
  ["RRIRWRPPRLPRPRPRPLVPPRP", "Escherichia coli TOP10", -0.000952],
  ["RRIRCRPPRLPRPRPRPDVDPRP", "Escherichia coli TOP10", 0.0251],
  ["RRIRKRPPRLPRPRPRPGTGPRP", "Escherichia coli TOP10", 0.1]
]}

Return shrunken log2 fold change measured with Escherichia coli TOP10 given this sequence: RRIRQRPPRLPRPRPRPGPPPRP
0.462

Now try RRIRPRPPRLPRPRPRPTPYPRP .
-0.0196

Can you check RRIRPRPPRLPRPRPRPFVGPRP next?
-0.297

Also RRIRMRPPRLPRPRPRPTNDPRP , if possible.
0.231

What do we get for RRIRLRPPRLPRPRPRPQEAPRP ?
0.0514

Repeat with RRIRCRPPRLPRPRPRPNEMPRP
-0.123

Same for RRIRMRPPRLPRPRPRPEPPPRP
1.76

And RRIRTRPPRLPRPRPRPYTKPRP ?
-0.248

====

System: Escherichia coli TOP10
Experiment: shrunken log2 fold change of peptide-encoding DNA abundance (4.5 h post-induction vs induction); higher = less antimicrobial activity (less host growth inhibition)
Conditions: time post-induction: 4.5 h; library: site-saturation at positions 5, 18, 19, 20
Measured Attribute: shrunken log2 fold change
Give the figure by itself; no unit, no explanation.

{"columns": ["Chain Sequence", "shrunken log2 fold change"],
 "data": [
  ["RRIRGRPPRLPRPRPRPLVWPRP", 0.952],
  ["RRIRLRPPRLPRPRPRPYGCPRP", -0.318],
  ["RRIRMRPPRLPRPRPRPAYVPRP", -0.114],
  ["RRIRVRPPRLPRPRPRPYWPPRP", -0.182]
]}

Give the reported shrunken log2 fold change for RRIRKRPPRLPRPRPRPYMIPRP (system: Escherichia coli TOP10).
-0.415

Also need RRIRLRPPRLPRPRPRPPNMPRP , thanks.
-0.076

What about RRIRFRPPRLPRPRPRPGISPRP ?
-0.0961

Same for RRIRLRPPRLPRPRPRPAAGPRP
0.312

====

Test system: Escherichia coli TOP10
Experiment: shrunken log2 fold change of peptide-encoding DNA abundance (4.5 h post-induction vs induction); higher = less antimicrobial activity (less host growth inhibition)
Conditions: time post-induction: 4.5 h; library: site-saturation at positions 5, 18, 19, 20
Measured Attribute: shrunken log2 fold change
Form: value (number only, do not type unit).

{"columns": ["Chain Sequence", "Measured Result"],
 "data": [
  ["RRIRMRPPRLPRPRPRPGSLPRP", 0.432]
]}

Now for the sequence whose shrunken log2 fold change we want.
Write down the reported shrunken log2 fold change of RRIRARPPRLPRPRPRPQTCPRP , test system: Escherichia coli TOP10.
0.246

====

Test system: Escherichia coli TOP10
Assay: shrunken log2 fold change of peptide-encoding DNA abundance (4.5 h post-induction vs induction); higher = less antimicrobial activity (less host growth inhibition)
Details: time post-induction: 4.5 h; library: site-saturation at positions 5, 18, 19, 20
param class (str): category from shrunken log2 fold change; see ranges range 1 = under -0.001, range 2 = from -0.001 up to 0.2, range 3 = 0.2 and over

{"columns": ["Chain Sequence", "Cat"],
 "data": [
  ["RRIRWRPPRLPRPRPRPREQPRP", "range 3"],
  ["RRIRMRPPRLPRPRPRPNPRPRP", "range 3"],
  ["RRIRFRPPRLPRPRPRPFTFPRP", "range 1"],
  ["RRIRNRPPRLPRPRPRPSVQPRP", "range 1"],
  ["RRIRLRPPRLPRPRPRPWNDPRP", "range 2"]
]}

Tag the class for RRIRDRPPRLPRPRPRPNPTPRP
range 2

====

Test system: Escherichia coli TOP10
Assay: shrunken log2 fold change of peptide-encoding DNA abundance (4.5 h post-induction vs induction); higher = less antimicrobial activity (less host growth inhibition)
Conditions: time post-induction: 4.5 h; library: site-saturation at positions 5, 18, 19, 20
Heads up, the class ranges for shrunken log2 fold change are low value: < -0.1; medium value: ≥ -0.1 and < 0.3; high value: ≥ 0.3

Reference set, count: 8
{"columns": ["Chain Sequence", "Cat"],
 "data": [
  ["RRIRWRPPRLPRPRPRPTAFPRP", "medium value"],
  ["RRIRCRPPRLPRPRPRPFYPPRP", "low value"],
  ["RRIRMRPPRLPRPRPRPLQSPRP", "high value"],
  ["RRIRCRPPRLPRPRPRPYLIPRP", "low value"],
  ["RRIRDRPPRLPRPRPRPLQNPRP", "high value"],
  ["RRIRDRPPRLPRPRPRPADVPRP", "high value"],
  ["RRIRKRPPRLPRPRPRPFLAPRP", "medium value"],
  ["RRIRIRPPRLPRPRPRPKAAPRP", "medium value"]
]}

Each sequence maps to one class by shrunken log2 fold change. Which class for RRIRDRPPRLPRPRPRPDQFPRP ?
medium value

One more sequence: RRIRIRPPRLPRPRPRPKNCPRP
low value

Would you mind doing RRIRYRPPRLPRPRPRPEMAPRP as well?
low value

Lookup RRIRMRPPRLPRPRPRPTEKPRP
high value

Queued: RRIRQRPPRLPRPRPRPFYLPRP
low value

Param item: RRIRKRPPRLPRPRPRPEEIPRP
medium value

Please give the result for RRIRKRPPRLPRPRPRPRFIPRP too.
high value

====

Attribute: shrunken log2 fold change
System: Escherichia coli TOP10;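 note: peptides expressed intracellularly from a pBAD plasmid library in pooled LB shake-flask culture, induced with 0.3% L-arabinose, DNA abundance read by NGS, three biological replicates, DESeq2 with apeglm shrinkage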
Assay: shrunken log2 fold change of peptide-encoding DNA abundance (4.5 h post-induction vs induction); higher = less antimicrobial activity (less host growth inhibition)
Settings: time post-induction: 4.5 h; library: site-saturation at positions 5, 18, 19, 20
Please give the numeric answer without any surrounding text.

{"columns": ["Chain Sequence", "Measured Result"],
 "data": [
  ["RRIRGRPPRLPRPRPRPICSPRP", 0.122]
]}

Data request, read-out shrunken log2 fold change, for RRIRVRPPRLPRPRPRPHDSPRP
0.0311

Also, RRIRTRPPRLPRPRPRPHPVPRP please.
0.1

Then what about the sequence RRIRQRPPRLPRPRPRPWEKPRP ?
-0.0123

Then this sequence: RRIRHRPPRLPRPRPRPLTEPRP
-0.342
